# Tested on: HEK-293T
# EXPERIMENTAL_PROTOCOL: Multiplex assay against HEK293T
# Type: toxicity, cell-based
# STATED_CONDITIONS: human, 48 h, 10 µM, compound concentration 10 uM, replicate 2
EXPERIMENTAL_READOUT: Population Mitotic Cells (%)

Recorded Population Mitotic Cells (%), per entry:
Identify the measured Population Mitotic Cells (%) of Cc1sc2c(c1C)C(c1ccc(Cl)cc1)=N[C@@H](CC(=O)NCCCCCCCCNC(=O)COc1cccc3c1C(=O)N(C1CCC(=O)NC1=O)C3=O)c1nnc(C)n1-2 (some centres undefined) for HEK-293T.
34%

Check COc1ccccc1N1CCN(C[C@@H](C(=O)NC(C)(C)C)c2ccccc2)CC1.Cl.Cl too.
37%

Next molecule up: CC(C)c1noc(N2CCC(COc3ccc(-c4ccc(S(C)(=O)=O)cc4)nc3)CC2)n1
69%

---
API: value(readout=Population Mitotic Cells (%), system=HEK-293T) for record Br.CS(=O)(=O)Nc1c(O)ccc2c1CCCC2C1=NCCN1 (centres undefined)
51%

Would you kindly repeat that for CCCCC(=O)N(Cc1ccc(-c2ccccc2-c2nnn[nH]2)cc1)[C@H](C(=O)O)C(C)C ?
84%

Also Cc1cnc(-c2cc(N3CCN(C(=O)CCS(C)(=O)=O)CC3)ncc2Cl)c(C)c1 ?
63%

Field entry: CCc1cc2cc(NS(=O)(=O)c3ccc(C#N)cc3)ccc2n(CC)c1=O
52%

Queued: COC[C@@H](c1ccc(C(F)(F)F)cc1)N1CCN(C2(C)CCN(C(=O)c3c(C)ncnc3C)CC2)C[C@@H]1C.O=C(O)/C=C\C(=O)O [VICRIVIROC MALEATE]
46%

Field entry: O=C(NCCN1CCC(n2c(=O)[nH]c3cc(Cl)ccc32)CC1)c1ccc(F)cc1 [HALOPEMIDE]
40%

Now the molecule Cc1cccc(NC(=O)CN2CCC(c3ccccn3)CC2)c1.Cl.Cl
51%

Also check CN1CCN(c2cc(-c3ccccc3)nc(N)n2)CC1
72%

And what about the molecule CN[C@@H](C)C(=O)N[C@H](C(=O)N1CCC[C@H]1C(=O)Nc1snnc1-c1ccccc1)C1CCCCC1 ?
39%

###

Entries and their Population Apoptotic (%)
# Test system: HEK-293T
# EXPERIMENTAL_PROTOCOL: Multiplex assay against HEK293T
# Assay type: toxicity, cell-based
# STATED_CONDITIONS: human, 24 h, 10 µM, compound concentration 10 uM, replicate 2
Write the answer as a number in %, unit excluded.

Here are 3 compounds together with their reported answers.
So what Population Apoptotic (%) did CC(/C=C1\SC(=S)N(CCCC(=O)Nc2ccc(C(=O)O)c(O)c2)C1=O)=C\c1ccccc1 get with HEK-293T?
39

Another compound to look at: Cc1c(CC(=O)O)c2cccnc2n1Cc1ccc(S(C)(=O)=O)cc1C(F)(F)F [FEVIPIPRANT]
50

Now the compound Cl.N=C(N)NC(=O)Cc1c(Cl)cccc1Cl [GUANFACINE HYDROCHLORIDE]
36

Let us move to another entry and its Population Apoptotic (%).
State its Population Apoptotic (%) on HEK-293T: COC[C@@H](c1ccc(C(F)(F)F)cc1)N1CCN(C2(C)CCN(C(=O)c3c(C)ncnc3C)CC2)C[C@@H]1C.O=C(O)/C=C\C(=O)O [VICRIVIROC MALEATE]
60
